The origin of these recorded values is PubChem BioAssay AID1996.

RUN_CONDITIONS: buffer; pH 7.4; 200.0 µM
RECORDED_ENDPOINT: solubility kinetic (µg/mL)
Expressed in µg/mL, but write only the number.

Previously resolved entries follow.
COMPOUND	NUMERIC_RESULT
O=C(CC1SC(N2CCCCC2)=NC1=O)Nc1ccc(C(=O)NCc2ccccc2)cc1 (stereo not drawn)	61.3
CC1CCCCC1NC(=O)COC(=O)c1ccc2ccccc2n1 (stereo not drawn)	7.1
O=C(COc1ccccc1)N1CCN=C1SCc1ccc(F)cc1	6.4

Fill in the blank: the reported solubility kinetic of Cc1cc(NC(=O)C2CC(=O)N(c3cccc(Cl)c3)C2)no1 (stereo not drawn) is ____.
16.3

---

RUN_CONDITIONS: buffer; pH 7.4; 200.0 µM
Note to self: values exactly at 4 µg/mL are t. So solubility kinetic at or above 4 µg/mL is t, below is f.

COMPOUND	CAT
CC(C)c1ccc(NC(=S)N2CCN(C)CC2)cc1	t
CC1=CCC2C(=O)N(c3ccc(S(N)(=O)=O)cc3)C(=O)C2C1 (stereo not drawn)	t
O=C1NC2(CCCCCC2)C(=O)N1Cc1ccccc1Cl	t
O=C(CCC(=O)c1cccs1)NC1CCCCCC1	t
CCC(C)[C@H](NC(=O)NCc1ccco1)C(=O)OC (stereo partly drawn)	t
O=C(CNC(=O)c1ccccc1F)c1ccccc1	t
CSc1nc2c(cc1C#N)CCC2	t
O=CN1CCN(C(=S)Nc2ccc(OC(F)F)cc2)CC1	t

solubility kinetic >= 4 µg/mL for COc1ccc(C(=O)OCC(=O)NC2CCCC2)c(OC)c1OC ?
t

Repeat for the following compound: NS(=O)(=O)c1ccc(NC(=O)CCCC(=O)O)cc1
t

Then what about the compound CN(C(=O)c1cccc(NC(=O)Cc2ccccc2)c1)c1ccccc1 ?
t

Ok, now O=C(c1ccc(Cl)cc1)N1CCN(CCOc2ccccc2)CC1
t

Try the compound CCCOC(=O)Nc1nc(-c2ccc(C)cc2)c(C)s1
f

And for O=C1CN(O)C(c2ccccc2)=c2cc(Cl)ccc2=N1 ?
t

And for COc1cc(=O)[nH]c(SC(C)C(=O)Nc2cccc3ccccc23)n1 (stereo not drawn) ?
f

And for O=C(COC(=O)COc1ccccc1)Nc1ccc(Br)cc1F ?
t

---

Reported values of solubility kinetic for individual entries
RUN_CONDITIONS: buffer; pH 7.4; 200.0 µM

Answered examples (4):
COMPOUND	RECORDED_ENDPOINT	RESULT
CC1(C)CC(=O)C(CC(=O)NC2CCCc3ccccc32)C(=O)C1 (stereo not given)	solubility kinetic	> 49.1 µg/mL
Cc1[nH]c2ccccc2c1C(O)CN1CCC2(CC1)OCCO2 (stereo not given)	solubility kinetic	> 47.5 µg/mL
Brc1ccc(-c2noc(-c3ccccc3)n2)o1	solubility kinetic	< 0.3 µg/mL
Cn1c(SCC(=O)NC2CCCC2)nnc1C(F)(F)F	solubility kinetic	> 46.2 µg/mL

Could you now consider this next compound?
Please give the measured solubility kinetic for this compound: COc1ccccc1NC(=O)CN1CCOCC1
> 37.5 µg/mL

---

This section presents compounds with their documented log10 of solubility kinetic values.
RUN_CONDITIONS: buffer; pH 7.4; 200.0 µM
# values: log10(solubility kinetic), units µg/mL

Answered cases to consult:
COMPOUND	RECORDED_ENDPOINT	NUMERIC_RESULT
O=C(c1cc(Br)c[nH]1)N1CCSCC1	log10 of solubility kinetic	1.47
COc1ccc(Br)cc1CN1CCSCC1	log10 of solubility kinetic	1.47

Sample COCC(C)NC(=O)c1ccc2nc(-c3ccccc3)c(-c3ccccc3)nc2c1 (stereo not given) — what was its log10 of solubility kinetic?
0.72

---

RUN_CONDITIONS: buffer; pH 7.4; 200.0 µM
The following compounds are listed with their measured solubility kinetic values.

COMPOUND	RESULT
Cc1ccc(NC(=S)N(CCN(C)C)C(C)c2cccnc2)cc1 (centres undefined)	> 51.4 µg/mL
Cc1cccc(C(=O)N/N=C/c2ccoc2)c1	> 34.2 µg/mL
COc1ccc(S(=O)(=O)NCc2cccnc2)cc1OC	> 46.3 µg/mL

Attention now shifts to the item below.
What measured solubility kinetic goes with Cc1ccc(SCC(=O)OCC(=O)NC2CCCCCC2)cc1 ?
> 50.3 µg/mL

---

Each entry below carries its recorded solubility kinetic.
RUN_CONDITIONS: buffer; pH 7.4; 200.0 µM

Below, 2 compounds whose answers are already recorded.
CHEM_SMILES	RECORDED_ENDPOINT	RESULT
Cc1ccc(C(=O)NCCC(=O)Nc2ccccc2C)cc1	solubility kinetic	> 44.5 µg/mL
CS(=O)(=O)N(CC(=O)Nc1ccc(F)cc1F)C1CCCCC1	solubility kinetic	> 52 µg/mL

Look at this compound and give its reported solubility kinetic. O=C(COc1ccc(Br)cc1F)NCC1(N2CCCCC2)CCCCC1
> 64.1 µg/mL

---

solubility kinetic listing for selected compounds.
RUN_CONDITIONS: buffer; pH 7.4; 200.0 µM

// known answers, use as guide
COMPOUND	solubility kinetic
Cc1cc(C)cc(NC(=O)NCc2ccccn2)c1	> 38.3 µg/mL
Cc1cccc(OCC(O)CN2CCOCC2)c1.Cl (stereo not given)	> 43.2 µg/mL
O=C(Cc1ccccc1)Nc1ccc(C(=O)NCc2ccccc2)cc1	< 0.4 µg/mL

I would be grateful if you could share the reported solubility kinetic for CC(=O)c1cccc(NC(=O)CSc2nc3ccccc3c(=O)n2CCCN2CCOCC2)c1 .
> 72.1 µg/mL

Then what about the compound CC(C)(C)c1ccc(OCc2cnc(Cl)s2)cc1 ?
< 0.6 µg/mL

---

RUN_CONDITIONS: buffer; pH 7.4; 200.0 µM
solubility kinetic for assorted compounds

Solved entries:
COMPOUND	solubility kinetic
COc1ccc2c(c1)CC(=O)NC=C2	> 28.4 µg/mL
CCc1sc(C(=O)N2CCN(C(=O)c3ccccc3)CC2)cc1C	> 51.4 µg/mL
O/N=C/c1nc2cc(Cl)ccc2o1	> 29.5 µg/mL

Sample C=C(c1ccccc1)c1ccc(N(C)C)cc1 — what was its solubility kinetic?
2.3 µg/mL

Again, but for CS(=O)(=O)Nc1ccc(C(=O)Nc2ccccc2-c2ccccc2)cc1
42.4 µg/mL

Further, for CCc1ccc2c(c1)C(O)(CC(=O)c1cccs1)C(=O)N2 (centres undefined) ?
> 45.2 µg/mL

NC(=O)CCSC(=S)N1CCOCC1 ?
> 35.1 µg/mL

Note, next up: OC(COc1ccc(F)cc1Cl)CN1CCc2ccccc2C1 (centres undefined)
37.4 µg/mL

One more compound: COCCCNC(=S)Nc1ccc(C)cc1[N+](=O)[O-]
40.1 µg/mL

---

RUN_CONDITIONS: buffer; pH 7.4; 200.0 µM
# label = 1 if solubility kinetic >= 0.01 mg/mL else 0

Examples from the recorded data:
COMPOUND	CAT
O=C(CSc1ccccc1)NC1CCCCCC1	1
Cc1ccc(S(=O)(=O)N2CCc3ccccc3C2)cc1	0
CCn1c(NC(=O)C(C)C)c2ccccc2nc1=O	1
Cn1c(C(=O)N2CCN(c3ccc(F)cc3)CC2)cc2ccccc21	0
CCCc1cc(NCc2ccccn2)n2c(nc3ccccc32)c1C#N	0
Nc1ccccc1C(=O)N1CCC(O)(c2ccc(Cl)cc2)CC1	1
COc1ccc(NC(=O)O/N=C/c2ccccc2Cl)cc1	1
NS(=O)(=O)Cc1noc2ccccc12	1
COc1ccc(OC)c(NC(=O)CCCSc2ccccc2)c1	1
CN(C)C(=S)c1ccc(N(C)C)cc1	1

Confirm if solubility kinetic reported for the compound CCc1nc2cc3sc(CC)nc3cc2s1 is 0.01 mg/mL or above.
0

Item: CC(C)=CC(=O)OCC(=O)Nc1ccc(SC(F)F)cc1
1

Again, but for O=C(CN1C(=O)C(=O)N(CCC2=CCCCC2)C1=O)c1c[nH]c2ccccc12
0

---

RUN_CONDITIONS: buffer; pH 7.4; 200.0 µM
RECORDED_ENDPOINT: solubility kinetic

Form field: reported solubility kinetic of COc1cccc(CNc2ccc(C(=O)O)cc2)c1OCc1ccccc1
> 54.5 µg/mL

Consider next the compound CC(=O)Nc1ccccc1-c1nc2cc(C#N)c(C#N)cc2[nH]c1=O in the same way.
> 49.4 µg/mL

Check COc1ccc(N2CCN(C(=O)c3cc4ccccc4o3)CC2)cc1 too.
< 0.4 µg/mL

Can you handle O=CN1CCN(C(=O)c2cccc([N+](=O)[O-])c2)CC1 next?
> 39.5 µg/mL

And for CCn1c(O)c(C#N)c(C)cc1=O ?
> 26.7 µg/mL

Now the compound O=C(O)CN1C(=O)S/C(=C\c2cccnc2)C1=O
> 39.6 µg/mL

Cool, now COc1ccc(CNC(=O)CC(C)c2ccccc2)cc1 (stereo unspecified)
36.9 µg/mL

What do we get for CNC(=S)Nc1ccc(OCc2ccccc2)cc1 ?
29.5 µg/mL

Now the same for CCCCn1c(N)c(NCc2ccccc2)c(=O)[nH]c1=O
39.1 µg/mL

Also need COc1ccc(S(=O)(=O)NC(C)C(=O)N2CCCCCC2)cc1 (stereo unspecified) , thanks.
> 51.1 µg/mL

// query: O=S(=O)(c1ccc2ccccc2c1)N1CCc2ccccc21
< 0.7 µg/mL
